# System: MV-4-11 cells
# protocol-description: Proliferation assay B (spheroid assay) MV-4-11
# Assay type: cell-based
# run-conditions: Homo sapiens, MV4-11, 192 h, confluence at day 8, read-out: (3b) Spheroid assay MV-4-11 (IC50(μM)) Assay B
result-type: IC50 (µM)

>>> reported_result("N#CCn1c(=O)[nH]c2cc(CNC3CCC4(C3)CN(c3ncnc5sc(CC(F)(F)F)cc35)C4)ccc21 (stereo not shown)")
0.03

* * *

# measured-on: menin.FITC-MBM1 complex (terbium chelate-labeled menin) (Homo sapiens, UniProt O00255, F410E/T541A)
# Construct: Menin (a.a. 1-610-6×his tag) was labeled with terbium cryptate as follows
# Sequence (O00255 with tags, fused parts or gaps F410E/T541A): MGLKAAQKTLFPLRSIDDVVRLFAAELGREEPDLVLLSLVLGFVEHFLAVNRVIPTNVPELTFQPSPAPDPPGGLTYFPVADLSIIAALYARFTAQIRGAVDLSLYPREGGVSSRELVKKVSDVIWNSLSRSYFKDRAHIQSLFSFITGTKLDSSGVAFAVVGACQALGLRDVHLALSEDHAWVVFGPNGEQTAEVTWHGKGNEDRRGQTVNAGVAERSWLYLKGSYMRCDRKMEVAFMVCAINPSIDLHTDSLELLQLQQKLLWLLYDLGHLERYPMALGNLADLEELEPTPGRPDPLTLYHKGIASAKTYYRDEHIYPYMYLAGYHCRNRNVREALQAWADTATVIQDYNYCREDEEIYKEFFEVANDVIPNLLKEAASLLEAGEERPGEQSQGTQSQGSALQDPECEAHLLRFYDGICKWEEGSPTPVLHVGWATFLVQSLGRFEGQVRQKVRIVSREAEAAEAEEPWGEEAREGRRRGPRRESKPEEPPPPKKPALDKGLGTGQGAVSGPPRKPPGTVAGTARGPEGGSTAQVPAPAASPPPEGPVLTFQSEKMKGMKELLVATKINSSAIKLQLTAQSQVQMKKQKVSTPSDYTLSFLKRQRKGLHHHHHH
# protocol-description: Menin/MLL homogenous time-resolved fluorescence (HTRF) assay
# Format: binding
# run-conditions: location 2; read-out: (2) location 2 Menin HTRF assay (IC50 (nM))
result-type: log10 of IC50 (log10 of the value in nM)

>>> reported_result("O=c1[nH]c2ccc(NC3CC4(CCN(c5ncnc6sc(CC(F)(F)F)cc56)C4)C3)cc2[nH]1 (stereo not shown)")
1.96
>>> reported_result("N#Cc1ccc(NC2CC3(CCN(c4ncnc5sc(CC(F)(F)F)cc45)C3)C2)nc1 (single isomer, unassigned)")
2.06
>>> reported_result("Nc1nc(N2CCC3(CC(Nc4ccc5oc(=O)[nH]c5c4)C3)C2)c2cc(CC(F)(F)F)sc2n1 (stereo not shown)")
0.94
>>> reported_result("FC(F)(F)Cc1cc2c(N3CC4(CCC(Nc5ccc(-c6cn[nH]c6)cc5)C4)C3)ncnc2s1 (stereo not shown)")
1.71
>>> reported_result("CNC(=O)c1ccc(NC2CC3(CCN(c4ncnc5sc(CC(F)(F)F)cc45)C3)C2)c(Cl)c1 (single isomer, unassigned)")
0.08
>>> reported_result("O=c1[nH]c2ccc(CN[C@H]3CCC4(C3)CN(c3ncnc5sc(CC(F)(F)F)cc35)C4)cc2o1 (single isomer, unassigned)")
0.71
>>> reported_result("N#CCn1c(=O)[nH]c2cc(CNC3CCC4(C3)CN(c3ncnc5sc(CC(F)(F)F)cc35)C4)ccc21 (stereo not shown)")
0.04

* * *

# measured-on: menin.FITC-MBM1 complex (terbium chelate-labeled menin) (Homo sapiens, UniProt O00255, F410E/T541A)
# Construct: Menin (a.a. 1-610-6×his tag) was labeled with terbium cryptate as follows
# protocol-description: Menin/MLL homogenous time-resolved fluorescence (HTRF) assay
# Format: binding
# run-conditions: location 2; read-out: (2) location 2 Menin HTRF assay (IC50 (nM))
# Description: 2) Menin/MLL Homogenous Time-Resolved Fluorescence (HTRF) Assay […] Compound potencies were determined by first calculating % inhibition at each compound concentration according to equation 1: […] Where LC and HC are the HTRF values of the assay in the presence or absence of a saturating concentration of a compound that competes with FITC-MBM1 for binding to menin, and HTRF^compound is the measured HTRF value in the presence of the test compound. […]
The following compounds are shown together with reported log10 of IC50 values.
result-type: log10 of IC50 (log10 of the value in nM)

>>> reported_result("CNS(=O)(=O)c1ccc(NC2CC3(CCN(c4ncnc5sc(CC(F)(F)F)cc45)C3)C2)cc1 (centres unmarked) [Compound 317]")
2.16
>>> reported_result("O=S(=O)(NC1CC2(CCN(c3ncnc4sc(CC(F)(F)F)cc34)C2)C1)c1ccccc1 (centres unmarked) [Compound 23]")
3.12
>>> reported_result("O=c1[nH]c2ccc(CN[C@@H]3CCC4(C3)CN(c3ncnc5sc(CC(F)(F)F)cc35)C4)cc2o1 (single isomer, unassigned) [Compound 55]")
0.30
>>> reported_result("CNC(=O)c1ccc(N[C@@H]2CC[C@]3(CCN(c4ncnc5sc(CC(F)(F)F)cc45)C3)C2)cc1 (racemic) [Compound 136]")
1.61
>>> reported_result("FC(F)(F)Cc1cc2c(N3CCC4(CCC(Nc5ccc(-c6cc[nH]n6)cc5)C4)C3)ncnc2s1 (centres unmarked) [Compound 138]")
0.94
